The reported numbers originate from paper PMC4021451.

Form field: IC50 (one value per entry).
- System: A2780/cis cells (cisplatin-selected subline)
- assay: EZ4U viability assay in resistance models, A2780/cis
- Type: cell-based
- experimentalConditions: read-out: IC50 A2780/cis; EZ4U assay, 96 h exposure

| compound | subjectOfTest | IC50 [µM] |
| --- | --- | --- |
| N.N.[Cl][Pt][Cl] [cisplatin] | A2780/cis cells (cisplatin-selected subline) | 3.7 |
| CC(=O)[O-].CC(=O)[O-].N.NC1CCCCC1.[Cl-].[Cl-].[Pt+4] | A2780/cis cells (cisplatin-selected subline) | 5.7 |

###

- System: P31/cis cells (cisplatin-resistant subline)
- assay: EZ4U viability assay in resistance models, P31/cis
- Type: cell-based
- experimentalConditions: read-out: IC50 P31/cis, 96 h exposure

| compound | IC50 |
| --- | --- |
| N.N.[Cl][Pt][Cl] [cisplatin] | > 20 µM |
